Assay: Optical properties (absorbance, fluorescence emission, quantum yield)
Assay type: physicochemical
Field: Abs. Provide a value for each of the compounds that follow.

In the examples that follow, each entry is paired with its recorded Abs.
COc1cc(/C=C/C2=CC(/C=C/c3ccc(O)c(OC)c3)=[O+][B-](F)(F)O2)ccc1O; 500 nm
CC1=CC(C)=[O+][B-](F)(F)O1; 279 nm
CC1=CC(c2ccccc2)=[O+][B-](F)(F)O1; 325 nm

// each listed compound needs a value for Abs
1. CCC1=C(C)O[B-](F)(F)[O+]=C1C
2. COc1ccc(C2=CC(c3ccc(OC)cc3)=[O+][B-](F)(F)O2)cc1
3. CC1=[O+][B-](F)(F)OC(C)=C1C

stdout:
1: 303 nm; 2: 408 nm; 3: 303 nm
